Each entry below carries its reported Tm.
Test: Melting temperature (Tm) determination by nanoDSF
Format: physicochemical
Settings: inflection point #1, 1.0 mg/ml in PBS, 20-95° C. at 1° C./min

- Molecule: "IBIIICI CDR graft scFv variant SG: humanized scFv point mutated variant, SEQ ID NO:49 (protein) scFv: QVQLVQSGAEVKKPGASVKVSCKASGFNIKDFNIHWVRQAPGQGLEWIGRIDPESGDAEYVPKFQGRVTMTRDTSTSTVYMELSSLRSEDTAVYYCTTGSYDLDVEYWGQGTLVTVSSGGGGSGGGGSGGGGSGGGGSDIQMTQSPSSLSASVGDRVTITCHASQNINVWLSWYQQKPGKAPKLLIYKASTLHTGVPSRFSGSGSGTDFTLTISSLQPEDFATYYCQQGQSYPLTFGQGTKLEIK"
  Tm: "64.3 °C"
- Molecule: "IBIIICI CDR graft scFv variant NG (wt): original humanized IBIIICI CDR graft scFv, SEQ ID NO:54, NG at positions 62-63 of VH (protein) scFv: QVQLVQSGAEVKKPGASVKVSCKASGFNIKDFNIHWVRQAPGQGLEWIGRIDPENGDAEYVPKFQGRVTMTRDTSTSTVYMELSSLRSEDTAVYYCTTGSYDLDVEYWGQGTLVTVSSGGGGSGGGGSGGGGSGGGGSDIQMTQSPSSLSASVGDRVTITCHASQNINVWLSWYQQKPGKAPKLLIYKASTLHTGVPSRFSGSGSGTDFTLTISSLQPEDFATYYCQQGQSYPLTFGQGTKLEIK"
  Tm: "63.4 °C"
